study target: T1, fusion protein of the human NPR1 protein extracellular domain and human-IgG1-Fc (human)
T1 construct: also called hNPR1-hFc; hNPR1
T1 sequence (chain, as listed by the source limits assumed): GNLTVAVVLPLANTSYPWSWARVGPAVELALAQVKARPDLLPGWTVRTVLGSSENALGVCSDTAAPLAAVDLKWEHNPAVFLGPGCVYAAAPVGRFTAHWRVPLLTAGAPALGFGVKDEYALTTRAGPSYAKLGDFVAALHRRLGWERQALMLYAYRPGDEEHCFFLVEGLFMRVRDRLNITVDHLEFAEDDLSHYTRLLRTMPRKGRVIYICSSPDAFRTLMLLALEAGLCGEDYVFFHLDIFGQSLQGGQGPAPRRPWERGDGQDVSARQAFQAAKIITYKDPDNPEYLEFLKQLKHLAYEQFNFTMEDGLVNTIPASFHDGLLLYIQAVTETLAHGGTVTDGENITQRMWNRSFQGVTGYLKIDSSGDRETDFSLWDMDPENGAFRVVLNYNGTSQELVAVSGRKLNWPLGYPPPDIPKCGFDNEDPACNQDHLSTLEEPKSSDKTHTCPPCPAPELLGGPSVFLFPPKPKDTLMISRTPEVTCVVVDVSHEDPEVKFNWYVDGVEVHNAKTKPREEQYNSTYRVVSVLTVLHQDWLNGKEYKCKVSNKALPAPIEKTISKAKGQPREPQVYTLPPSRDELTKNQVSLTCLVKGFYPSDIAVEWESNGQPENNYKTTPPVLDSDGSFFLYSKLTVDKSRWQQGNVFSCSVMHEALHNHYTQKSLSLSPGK
experimental details: ELISA, plate coated with 4 µg/mL hNPR1 antigen
pEC50: −log10 of the molar value.
experimental endpoint: pEC50

Hu128H3L1-6 (antibody, human IgG1, kappa, L234A L235A, V domains shown, Humanized, human IgG1 LALA/kappa) VH: EVQLVQSGAEVKKPGASVKVSCKASGYTFTSYWMHWVRQAPGQGLEWMGRIDPNSGVTKYNEKFKSRVTLTVDKPSSPAYMELSSLRSEDTAVYYCARSSYLGRYFDVWGQGTTVTVSS VL: EIVLTQSPATLSLSPGERATLKCSATSSVSYMYWYQQKPGQAPRLLIYDTYNLGSRIPARFSGSGSGTDYTLTISRLEPEDFAVYYCQQWSSYPPTFGQGTKLEIKR :: 8.74

These measurements were taken from patent EP4725963A1.
